# system.tested: GP IIb IIIa (Homo sapiens, UniProt P05106+P08514)
# Sequence (P08514 32-887 limits assumed): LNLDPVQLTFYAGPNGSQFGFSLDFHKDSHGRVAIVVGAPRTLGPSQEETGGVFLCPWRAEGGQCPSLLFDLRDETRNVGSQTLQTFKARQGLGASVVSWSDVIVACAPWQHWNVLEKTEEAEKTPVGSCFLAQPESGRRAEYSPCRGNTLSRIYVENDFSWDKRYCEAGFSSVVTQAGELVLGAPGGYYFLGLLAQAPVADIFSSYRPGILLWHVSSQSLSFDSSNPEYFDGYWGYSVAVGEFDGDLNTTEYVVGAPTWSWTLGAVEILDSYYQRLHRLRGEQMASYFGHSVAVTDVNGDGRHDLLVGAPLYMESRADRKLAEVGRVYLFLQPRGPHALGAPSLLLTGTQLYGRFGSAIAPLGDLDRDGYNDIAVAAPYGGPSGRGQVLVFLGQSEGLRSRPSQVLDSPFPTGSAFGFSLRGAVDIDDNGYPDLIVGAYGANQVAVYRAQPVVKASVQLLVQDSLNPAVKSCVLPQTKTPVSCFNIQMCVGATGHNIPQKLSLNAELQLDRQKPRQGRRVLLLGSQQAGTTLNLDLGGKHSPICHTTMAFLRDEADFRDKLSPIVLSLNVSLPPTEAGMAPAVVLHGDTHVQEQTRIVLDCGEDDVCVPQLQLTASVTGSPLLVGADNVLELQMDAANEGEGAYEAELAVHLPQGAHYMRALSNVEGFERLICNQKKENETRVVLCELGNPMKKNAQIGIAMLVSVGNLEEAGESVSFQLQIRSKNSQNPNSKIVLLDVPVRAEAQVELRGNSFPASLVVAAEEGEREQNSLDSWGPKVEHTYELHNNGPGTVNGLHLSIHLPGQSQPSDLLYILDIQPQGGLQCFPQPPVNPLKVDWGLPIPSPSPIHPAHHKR
# Sequence (P08514 891-1039 partner limits assumed): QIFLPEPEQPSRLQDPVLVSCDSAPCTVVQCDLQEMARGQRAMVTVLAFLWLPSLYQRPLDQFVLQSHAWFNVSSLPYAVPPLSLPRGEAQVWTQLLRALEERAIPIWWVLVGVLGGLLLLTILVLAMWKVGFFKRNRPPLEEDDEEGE
# Sequence (P05106 27-788): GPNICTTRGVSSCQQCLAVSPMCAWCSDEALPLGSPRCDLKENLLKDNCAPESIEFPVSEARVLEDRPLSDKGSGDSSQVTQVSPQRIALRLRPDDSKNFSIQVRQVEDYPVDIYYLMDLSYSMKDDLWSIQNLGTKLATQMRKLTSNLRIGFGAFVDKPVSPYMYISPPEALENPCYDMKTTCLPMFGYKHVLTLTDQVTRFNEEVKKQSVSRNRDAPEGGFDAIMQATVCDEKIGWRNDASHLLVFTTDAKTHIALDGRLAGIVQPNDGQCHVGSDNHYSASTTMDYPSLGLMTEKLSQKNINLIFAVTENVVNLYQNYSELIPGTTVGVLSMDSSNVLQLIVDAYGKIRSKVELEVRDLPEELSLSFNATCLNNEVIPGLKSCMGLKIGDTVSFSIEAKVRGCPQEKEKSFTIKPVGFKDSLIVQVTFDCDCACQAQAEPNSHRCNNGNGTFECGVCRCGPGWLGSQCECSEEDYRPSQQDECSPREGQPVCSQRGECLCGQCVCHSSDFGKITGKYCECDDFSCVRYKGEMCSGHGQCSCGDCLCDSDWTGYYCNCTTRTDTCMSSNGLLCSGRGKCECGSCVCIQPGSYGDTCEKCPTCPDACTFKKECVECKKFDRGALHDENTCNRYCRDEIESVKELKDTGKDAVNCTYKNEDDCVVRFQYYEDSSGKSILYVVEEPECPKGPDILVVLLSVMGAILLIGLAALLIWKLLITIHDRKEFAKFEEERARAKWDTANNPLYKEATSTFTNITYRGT
# assay.notes: Fibrinogen-GP IIb IIIa Receptor ELISA Binding Assay
# Parameters: from tissue; host or cells: outdated human platelets
# conditions: purified human platelet GP IIb IIIa, fibrinogen-coated plates; read-out: ELISA IC50 Fibrinogen GPIIb IIIa
Where a SMILES comes first, the peptide text is derived from it. Bridges are numbered along the chain shown (N, C = ends). [ ]: non-standard residue; d: D form. The star is where a group is joined. Aad = N[C@@H](CCCC(=O)O)C(=O)O; NH(CH2)5NH2 = NCCCCCN*; NH(CH2)3NH2 = NCCCN*
assay.endpoint: pIC50
Keep it numeric: pIC50 is minus log10 of the concentration in mol/L.

Response field pIC50 (GP IIb IIIa (Homo sapiens, UniProt P05106+P08514)) for item N=C(N)NCCC[C@@H]1NC(=O)[C@@H](Cc2ccc(O)cc2)NC(=O)CSC[C@@H](C(=O)NCCCCCN)NC(=O)[C@H](CC(=O)O)NC(=O)CNC1=O [8/13] ({CH2CO}-[dY]RGDC-{NH(CH2)5NH2}; thioether N-5) : 8.05

Response field pIC50 (GP IIb IIIa (Homo sapiens, UniProt P05106+P08514)) for item N=C(N)NCCC[C@@H]1NC(=O)[C@@H](Cc2ccc(O)cc2)NC(=O)C(CCCCN)SC[C@@H](C(=O)O)NC(=O)[C@H](CC(=O)O)NC(=O)CNC1=O (single isomer, unassigned) [9/11] : 7.84

Response field pIC50 (GP IIb IIIa (Homo sapiens, UniProt P05106+P08514)) for item N=C(N)NCCC[C@@H]1NC(=O)[C@@H](Cc2ccc(O)cc2)NC(=O)CSC[C@@H](C(=O)NCCCN)NC(=O)[C@H](CC(=O)O)NC(=O)CNC1=O [8/22] ({CH2CO}-[dY]RGDC-{NH(CH2)3NH2}; thioether N-5) : 7.82

Response field pIC50 (GP IIb IIIa (Homo sapiens, UniProt P05106+P08514)) for item N=C(N)NCCC[C@@H]1NC(=O)[C@@H](Cc2ccc(O)cc2)NC(=O)CCC[C@@H](C(=O)N[C@@H](CCCCN)C(N)=O)NC(=O)[C@H](CC(=O)O)NC(=O)CNC1=O [10/20] ([dY]RGD[Aad]K-NH2; lactam N-5) : 7.91
